- ASSAY TEXT: Cytotoxicity against human non-small cell lung cancer cells at 10 uM after 48 hrs
- Format: functional
- ASSAY CONTEXT: Cancer cell lines
Decide using GI50 alone. Strictly below 3 µM: True. Equal to or above 3 µM: False.

COMPOUND: Clc1ccc(/C=C2\CCCC3=C(c4ccc(Cl)cc4)Nc4ccccc4N=C32)cc1
GROUP LABEL: False

COMPOUND: O=c1[nH]cc(F)c(=O)[nH]1 [FLUOROURACIL]
GROUP LABEL: False

COMPOUND: COc1ccc(/C=C2\CCCc3c2nc(N)nc3-c2ccc(OC)c(OC)c2)cc1OC
GROUP LABEL: False

COMPOUND: COc1cc(/C=C2\CCCC3=C(c4cc(OC)c(OC)c(OC)c4)Nc4ccccc4N=C32)cc(OC)c1OC
GROUP LABEL: True

COMPOUND: COc1cc(/C=C2\CCCc3c2nc(C)nc3-c2cc(OC)c(OC)c(OC)c2)cc(OC)c1OC
GROUP LABEL: True

COMPOUND: COc1cc(/C=C2\CCCc3c2nc(N)nc3-c2cc(OC)c(OC)c(OC)c2)cc(OC)c1OC
GROUP LABEL: True

COMPOUND: COc1ccc(/C=C2\CCCc3c2nc(C)nc3-c2ccc(OC)c(OC)c2)cc1OC
GROUP LABEL: False

COMPOUND: Nc1nc2c(c(-c3ccc(Cl)cc3)n1)CCC/C2=C\c1ccc(Cl)cc1
GROUP LABEL: False

###

- Tested on: OVCAR-8
- ASSAY TEXT: Growth inhibition of human OVCAR8 cells at 10 uM after 48 hrs
- Format: functional
- ASSAY CONTEXT: OVCAR-8, 48 h, read-out: GI
Each entry below carries its recorded inhibition of growth at 10 µM.
READOUT: inhibition of growth at 10 µM (%)

CHEMICAL SMILES: COc1cc(/C=C2\CCCC3=C(c4cc(OC)c(OC)c(OC)c4)Nc4ccccc4N=C32)cc(OC)c1OC
READOUT: inhibition of growth at 10 µM
MEASUREMENT UNITS: %
VALUE QUALIFIER: =
NUMERIC READOUT: 81.4
//
CHEMICAL SMILES: Clc1ccc(/C=C2\CCCC3=C(c4ccc(Cl)cc4)Nc4ccccc4N=C32)cc1
READOUT: inhibition of growth at 10 µM
MEASUREMENT UNITS: %
VALUE QUALIFIER: =
NUMERIC READOUT: 34.3
//
CHEMICAL SMILES: Cc1nc2c(c(-c3ccc(Br)cc3)n1)CCC/C2=C\c1ccc(Br)cc1
READOUT: inhibition of growth at 10 µM
MEASUREMENT UNITS: %
VALUE QUALIFIER: <
NUMERIC READOUT: 30
//
CHEMICAL SMILES: COc1ccc(/C=C2\CCCc3c2nc(N)nc3-c2ccc(OC)c(OC)c2)cc1OC
READOUT: inhibition of growth at 10 µM
MEASUREMENT UNITS: %
VALUE QUALIFIER: =
NUMERIC READOUT: 89.4
//
CHEMICAL SMILES: Nc1nc2c(c(-c3ccc(Cl)cc3)n1)CCC/C2=C\c1ccc(Cl)cc1
READOUT: inhibition of growth at 10 µM
MEASUREMENT UNITS: %
VALUE QUALIFIER: =
NUMERIC READOUT: 58.8
//
CHEMICAL SMILES: Cc1nc2c(c(-c3ccc(Cl)cc3)n1)CCC/C2=C\c1ccc(Cl)cc1
READOUT: inhibition of growth at 10 µM
MEASUREMENT UNITS: %
VALUE QUALIFIER: <
NUMERIC READOUT: 30
//
CHEMICAL SMILES: COc1ccc(/C=C2\CCCC3=C(c4ccc(OC)cc4)Nc4ccccc4N=C32)cc1
READOUT: inhibition of growth at 10 µM
MEASUREMENT UNITS: %
VALUE QUALIFIER: <
NUMERIC READOUT: 30
//
CHEMICAL SMILES: COc1ccc(/C=C2\CCCc3c2nc(C)nc3-c2ccc(OC)cc2)cc1
READOUT: inhibition of growth at 10 µM
MEASUREMENT UNITS: %
VALUE QUALIFIER: <
NUMERIC READOUT: 30
//
CHEMICAL SMILES: Nc1nc2c(c(-c3ccc(Br)cc3)n1)CCC/C2=C\c1ccc(Br)cc1
READOUT: inhibition of growth at 10 µM
MEASUREMENT UNITS: %
VALUE QUALIFIER: <
NUMERIC READOUT: 30
//
CHEMICAL SMILES: COc1ccc(/C=C2\CCCc3c2nc(N)nc3-c2ccc(OC)cc2)cc1
READOUT: inhibition of growth at 10 µM
MEASUREMENT UNITS: %
VALUE QUALIFIER: <
NUMERIC READOUT: 30
//
CHEMICAL SMILES: COc1cc(/C=C2\CCCc3c2nc(C)nc3-c2cc(OC)c(OC)c(OC)c2)cc(OC)c1OC
READOUT: inhibition of growth at 10 µM
MEASUREMENT UNITS: %
VALUE QUALIFIER: =
NUMERIC READOUT: 94.1
//
CHEMICAL SMILES: COc1ccc(/C=C2\CCCc3c2nc(C)nc3-c2ccc(OC)c(OC)c2)cc1OC
READOUT: inhibition of growth at 10 µM
MEASUREMENT UNITS: %
VALUE QUALIFIER: =
NUMERIC READOUT: 96.9

###

- Test system: ACHN
- ASSAY TEXT: Growth inhibition of human ACHN cells at 10 uM after 48 hrs
- Format: functional
- ASSAY CONTEXT: read-out: GI
Let's look at some compounds and their measured inhibition of growth at 10 µM.

CHEMICAL SMILES: COc1ccc(/C=C2\CCCc3c2nc(N)nc3-c2ccc(OC)cc2)cc1
STUDY SYSTEM: ACHN
inhibition of growth at 10 µM: < 30%
--
CHEMICAL SMILES: Cc1nc2c(c(-c3ccc(Br)cc3)n1)CCC/C2=C\c1ccc(Br)cc1
STUDY SYSTEM: ACHN
inhibition of growth at 10 µM: < 30%
--
CHEMICAL SMILES: COc1ccc(/C=C2\CCCc3c2nc(N)nc3-c2ccc(OC)c(OC)c2)cc1OC
STUDY SYSTEM: ACHN
inhibition of growth at 10 µM: 72.7%
--
CHEMICAL SMILES: Clc1ccc(/C=C2\CCCC3=C(c4ccc(Cl)cc4)Nc4ccccc4N=C32)cc1
STUDY SYSTEM: ACHN
inhibition of growth at 10 µM: < 30%
--
CHEMICAL SMILES: Cc1nc2c(c(-c3ccc(Cl)cc3)n1)CCC/C2=C\c1ccc(Cl)cc1
STUDY SYSTEM: ACHN
inhibition of growth at 10 µM: < 30%
--
CHEMICAL SMILES: Nc1nc2c(c(-c3ccc(Br)cc3)n1)CCC/C2=C\c1ccc(Br)cc1
STUDY SYSTEM: ACHN
inhibition of growth at 10 µM: < 30%
--
CHEMICAL SMILES: COc1cc(/C=C2\CCCc3c2nc(C)nc3-c2cc(OC)c(OC)c(OC)c2)cc(OC)c1OC
STUDY SYSTEM: ACHN
inhibition of growth at 10 µM: 87.5%
--
CHEMICAL SMILES: COc1ccc(/C=C2\CCCc3c2nc(C)nc3-c2ccc(OC)cc2)cc1
STUDY SYSTEM: ACHN
inhibition of growth at 10 µM: < 30%
--
CHEMICAL SMILES: COc1ccc(/C=C2\CCCC3=C(c4ccc(OC)cc4)Nc4ccccc4N=C32)cc1
STUDY SYSTEM: ACHN
inhibition of growth at 10 µM: < 30%
--
CHEMICAL SMILES: COc1ccc(/C=C2\CCCc3c2nc(C)nc3-c2ccc(OC)c(OC)c2)cc1OC
STUDY SYSTEM: ACHN
inhibition of growth at 10 µM: 90.2%
--
CHEMICAL SMILES: Nc1nc2c(c(-c3ccc(Cl)cc3)n1)CCC/C2=C\c1ccc(Cl)cc1
STUDY SYSTEM: ACHN
inhibition of growth at 10 µM: < 30%

###

- ASSAY TEXT: Growth inhibition of human UO31 cells at 10 uM after 48 hrs
- Assay type: functional
- ASSAY CONTEXT: UO-31, 48 h, read-out: GI
Parameter: inhibition of growth at 10 µM. Scope: all listed entries.

CHEMICAL SMILES: Cc1nc2c(c(-c3ccc(Br)cc3)n1)CCC/C2=C\c1ccc(Br)cc1
MEASUREMENT UNITS: %
VALUE QUALIFIER: <
inhibition of growth at 10 µM: 30
--
CHEMICAL SMILES: COc1cc(/C=C2\CCCc3c2nc(N)nc3-c2cc(OC)c(OC)c(OC)c2)cc(OC)c1OC
MEASUREMENT UNITS: %
VALUE QUALIFIER: =
inhibition of growth at 10 µM: 65.7
--
CHEMICAL SMILES: Clc1ccc(/C=C2\CCCC3=C(c4ccc(Cl)cc4)Nc4ccccc4N=C32)cc1
MEASUREMENT UNITS: %
VALUE QUALIFIER: <
inhibition of growth at 10 µM: 30
--
CHEMICAL SMILES: COc1ccc(/C=C2\CCCc3c2nc(N)nc3-c2ccc(OC)c(OC)c2)cc1OC
MEASUREMENT UNITS: %
VALUE QUALIFIER: =
inhibition of growth at 10 µM: 37.1
--
CHEMICAL SMILES: COc1cc(/C=C2\CCCc3c2nc(C)nc3-c2cc(OC)c(OC)c(OC)c2)cc(OC)c1OC
MEASUREMENT UNITS: %
VALUE QUALIFIER: =
inhibition of growth at 10 µM: 48.9
--
CHEMICAL SMILES: Cc1nc2c(c(-c3ccc(Cl)cc3)n1)CCC/C2=C\c1ccc(Cl)cc1
MEASUREMENT UNITS: %
VALUE QUALIFIER: <
inhibition of growth at 10 µM: 30
--
CHEMICAL SMILES: Nc1nc2c(c(-c3ccc(Cl)cc3)n1)CCC/C2=C\c1ccc(Cl)cc1
MEASUREMENT UNITS: %
VALUE QUALIFIER: =
inhibition of growth at 10 µM: 32.2
--
CHEMICAL SMILES: COc1ccc(/C=C2\CCCC3=C(c4ccc(OC)cc4)Nc4ccccc4N=C32)cc1
MEASUREMENT UNITS: %
VALUE QUALIFIER: <
inhibition of growth at 10 µM: 30

These entries and their values trace back to ChEMBL document CHEMBL3112482.
